protocol-summary: WST-1 dose-response cytotoxicity in HepG2 monoculture
Assay type: cell-based, human
condition-details: human, HepG2 cells (monoculture)
measure: viability at 24 h, 20 μM

compound CC(=O)N1CCN(c2ccc(OCC3COC(Cn4ccnc4)(c4ccc(Cl)cc4Cl)O3)cc2)CC1 (stereo not shown) , viability at 24 h, 20 μM observed: ~80%

###

protocol-summary: WST-1 dose-response cytotoxicity in HepG2 monoculture
Type: cell-based, human
condition-details: human, HepG2 cells (monoculture)
measure: viability at 24 h, 125 μM

compound O=C(O)Cc1ccccc1Nc1c(Cl)cccc1Cl , viability at 24 h, 125 μM observed: ~100%
